- System name: soluble FGFR2c receptor protein (human, UniProt P21802 148-377)
- Sequence (P21802 148-377): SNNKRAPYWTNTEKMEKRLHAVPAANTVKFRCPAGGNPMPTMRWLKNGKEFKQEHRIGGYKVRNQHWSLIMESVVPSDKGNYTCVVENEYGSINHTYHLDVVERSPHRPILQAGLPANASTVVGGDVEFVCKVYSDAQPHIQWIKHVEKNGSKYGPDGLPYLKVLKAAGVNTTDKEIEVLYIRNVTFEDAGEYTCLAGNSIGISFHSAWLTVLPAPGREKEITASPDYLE
- Protocol details: BLI Octet RED96, antibody on anti-hIgG Fc tip
Endpoint name: kon

[ask] Provide kon value for the following binder: Ab19 (antibody, human IgG2, kappa, V domains shown, format in the assays not spelled out) VH: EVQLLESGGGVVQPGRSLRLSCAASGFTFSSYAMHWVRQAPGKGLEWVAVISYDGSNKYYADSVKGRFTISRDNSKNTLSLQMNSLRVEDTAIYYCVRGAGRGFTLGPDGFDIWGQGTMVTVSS VL: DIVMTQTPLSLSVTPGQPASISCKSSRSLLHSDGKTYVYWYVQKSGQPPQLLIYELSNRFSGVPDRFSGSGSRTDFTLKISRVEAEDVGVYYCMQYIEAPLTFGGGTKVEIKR
[reply] 252000 M⁻¹ s⁻¹

Data credit: patent US20180244785A1
